Reported inhibition is given for each of the following molecules.
# measurement target: UniProtKB Q96FI4
# Sequence (Q96FI4 whole entry): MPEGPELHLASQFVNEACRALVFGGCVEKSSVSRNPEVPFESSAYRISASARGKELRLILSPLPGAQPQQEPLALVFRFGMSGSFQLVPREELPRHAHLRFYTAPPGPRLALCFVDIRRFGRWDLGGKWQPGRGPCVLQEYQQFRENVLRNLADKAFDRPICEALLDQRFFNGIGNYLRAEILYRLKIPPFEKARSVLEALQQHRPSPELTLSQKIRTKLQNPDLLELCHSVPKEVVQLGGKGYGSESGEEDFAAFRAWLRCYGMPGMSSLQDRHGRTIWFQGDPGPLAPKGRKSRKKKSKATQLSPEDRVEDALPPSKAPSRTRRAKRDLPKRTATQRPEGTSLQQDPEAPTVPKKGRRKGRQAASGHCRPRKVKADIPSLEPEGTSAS
# applied conditions: Compound Concentration 10.0 uM, Hit No
# Description: Inhibition of NEIL1 by quantifying inhibition of NEIL1-mediated cleavage and dissociation of quenched duplex DNA oligonucleotides, measured as fluorescence at 594 nm.
Report only the number, with the unit % understood.

| molecule | measurement target | unit text | inhibition |
| --- | --- | --- | --- |
| COc1ccc(CC[C@@H](OC(=O)[C@H]2CCCCN2C(=O)[C@@H](c2cc(OC)c(OC)c(OC)c2)C2CCCCC2)c2cccc(OCCN3CCOCC3)c2)cc1OC | UniProtKB Q96FI4 | % | -4.53 |
| N#Cc1cc2c(OCC(O)CN3CCN(C(c4ccccc4)c4ccccc4)CC3)cccc2[nH]1 (racemic) | UniProtKB Q96FI4 | % | 7.06 |
| CC1(C)CN2C(CS/C(=N\C3CCCCC3)NC3CCCCC3)=CSC2=N1 | UniProtKB Q96FI4 | % | 6.38 |
| CCCCN1CCC(COC(=O)c2cc(Cl)c(N)c3c2OCCO3)CC1 | UniProtKB Q96FI4 | % | 5.28 |

Incoming: Return reported inhibition; argument: "CN(C)[C@H]1CCN(c2cc(-c3ccccc3)nc3ccnn23)C1"
Outgoing: 6.98

Incoming: Return reported inhibition; argument: "O=C(Nc1c(-c2cccs2)nc2ccc(Cl)cn12)c1ccc(Cl)cc1"
Outgoing: 0.454

Incoming: Return reported inhibition; argument: "Clc1ccc2nsnc2c1NC1=NCCN1"
Outgoing: -3.76

Incoming: Return reported inhibition; argument: "CSCC[C@H](NC(=O)[C@H](Cc1ccccc1)NC(=O)[C@H](Cc1c[nH]cn1)NC(=O)CNC(=O)[C@@H](NC(=O)[C@H](C)NC(=O)[C@H](Cc1c[nH]c2ccccc12)NC(=O)[C@H](CC(C)C)NC(=O)[C@H](CC(N)=O)NC(=O)CN)[C@@H](C)O)C(N)=O"
Outgoing: 10.5

Incoming: Return reported inhibition; argument: Cc1cccc(C2CN(C)CCc3c2cc(O)c(O)c3Cl)c1 (configuration not stated)
Outgoing: -4.88

Incoming: Return reported inhibition; argument: "COc1ccc(OC)c(-c2ccc(NC(=O)c3ccncc3F)cc2)c1"
Outgoing: 3.57

Incoming: Return reported inhibition; argument: "CC(C)(O)[C@H](F)CN1Cc2cc(NC(=O)c3cnn4cccnc34)c(N3CCOCC3)cc2C1=O"
Outgoing: -5.19

Incoming: Return reported inhibition; argument: "CC1=C2C[C@H]3[C@@H](CC=C4C[C@@H](O)CC[C@@]43C)[C@@H]2CC[C@]12O[C@@H]1C[C@H](C)CN[C@H]1[C@H]2C"
Outgoing: -3.61

Incoming: Return reported inhibition; argument: "CCOCCn1cc(C(=O)Nc2ccc(-n3nc(-c4cccnc4)cc3C(F)(F)F)cn2)ccc1=O"
Outgoing: -4.68

Incoming: Return reported inhibition; argument: "CCCC(=O)C1(c2ccccc2)CCN(C(=O)[C@@H](Cc2ccc(OC)cc2)NC(=O)[C@@H](N)Cc2cncn2C)CC1"
Outgoing: 0.454

Incoming: Return reported inhibition; argument: "NC(N)=Nc1nc(CSCC/C(N)=N/S(N)(=O)=O)cs1"
Outgoing: 9.58

Incoming: Return reported inhibition; argument: "CCOc1ccc(Cc2nc3cc(C(=O)N(CC)CC)ccc3n2CC2CCCCC2)cc1"
Outgoing: 2.91

Incoming: Return reported inhibition; argument: "O=C1COc2nccc(-c3ccccc3F)c2CN1Cc1cc(C(F)(F)F)cc(C(F)(F)F)c1"
Outgoing: 2.76

Incoming: Return reported inhibition; argument: "CN1CCC[C@H]1c1cccnc1"
Outgoing: 4.6

Incoming: Return reported inhibition; argument: "C[C@@H](c1cccc(C#N)c1)n1cc(Cl)cc(C(N)=O)c1=N"
Outgoing: -4.99

Incoming: Return reported inhibition; argument: CC(C)(C)NCC(O)COc1cccc2[nH]c(=O)[nH]c12 (configuration not stated)
Outgoing: 3.06

Incoming: Return reported inhibition; argument: "CN(C)S(=O)(=O)c1ccc(NC(=S)N2CCC(C(O)(c3ccccc3)c3ccccc3)CC2)cc1"
Outgoing: -0.797

Incoming: Return reported inhibition; argument: CC(C)NCC(O)COc1cccc2ccccc12 (configuration not stated)
Outgoing: -0.797

Incoming: Return reported inhibition; argument: "CNCc1ccccc1-c1csc([C@@H](C)Nc2nc(C)nc3cc(OC)c(OC)cc23)c1"
Outgoing: -5.89

Incoming: Return reported inhibition; argument: "COc1ncc(F)cc1CNc1ccc(Cc2c[nH]c3ncc(C)cc23)c(F)n1"
Outgoing: 1.33

Incoming: Return reported inhibition; argument: "CCN(CC)S(=O)(=O)Nc1cccc(-c2ccc3c(NC(=O)C4CC4)n[nH]c3c2)c1"
Outgoing: 9.38

Incoming: Return reported inhibition; argument: "CCOC(=O)N[C@@H]1CC[C@@H]2[C@@H](C1)C[C@H]1C(=O)O[C@H](C)[C@H]1[C@H]2/C=C/c1ccc(-c2cccc(F)c2)cn1"
Outgoing: 5.28

----------
Reported inhibition is given for each of the following molecules.
# measurement target: G/T mismatch-specific thymine DNA glycosylase (Homo sapiens) (UniProt Q13569);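 also: human TDG cleavage of quenched duplex DNA oligonucleotides coupled to APE1, strand release read as fluorescence at 594 nm, inhibition of TDG activity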
# Sequence (Q13569 whole entry): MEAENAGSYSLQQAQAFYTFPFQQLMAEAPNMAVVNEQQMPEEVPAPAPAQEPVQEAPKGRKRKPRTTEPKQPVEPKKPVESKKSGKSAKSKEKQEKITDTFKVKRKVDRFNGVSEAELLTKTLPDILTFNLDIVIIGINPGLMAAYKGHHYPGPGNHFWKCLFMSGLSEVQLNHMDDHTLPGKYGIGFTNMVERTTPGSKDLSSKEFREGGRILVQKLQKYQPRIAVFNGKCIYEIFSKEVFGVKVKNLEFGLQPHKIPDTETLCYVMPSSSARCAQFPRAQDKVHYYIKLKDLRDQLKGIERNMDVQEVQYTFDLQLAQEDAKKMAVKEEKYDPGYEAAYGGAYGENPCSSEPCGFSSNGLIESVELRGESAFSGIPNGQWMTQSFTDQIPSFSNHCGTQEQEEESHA
# applied conditions: Compound Concentration 10.0 uM, Hit No
# Description: Inhibition of TDG by quantifying inhibition of TDG-mediated cleavage and dissociation of quenched duplex DNA oligonucleotides, measured as fluorescence at 594 nm. To generate a functional strand incision and increase turn-over this assay is coupled to APE1.
Report only the number, with the unit % understood.

Below, each entry is followed by its recorded inhibition result.
| molecule | unit text | inhibition |
| --- | --- | --- |
| CCOCCn1cc(C(=O)Nc2ccc(-n3nc(-c4cccnc4)cc3C(F)(F)F)cn2)ccc1=O | % | 35.4 |
| Cc1c(F)cccc1[C@H]1COC(N)=N1 | % | 11.7 |
| N#Cc1cc(F)cc(-c2nc(-c3ccc(F)cn3)no2)c1 | % | 2.89 |
| NC(=O)c1cc(-c2ccc(S(=O)(=O)[C@H]3CC[C@H](Nc4ccc(C(F)(F)F)cn4)CC3)cc2)ccn1 | % | 8.07 |
| COCCCS(=O)(=O)c1cc(C)c(-c2ccc(F)c3c2CC[C@H]3Oc2ccc3c(c2)OC[C@H]3CC(=O)O)c(C)c1 | % | 59.1 |
| CC[C@@H]1CN2C(=O)N(C)c3nc(-c4ccccc4)[nH]c3C2=N1 | % | -6.27 |
| CC(C)(O)CCn1c(=O)n(C(=O)N[C@H](C(N)=O)C(C)(C)C)c2ccccc21 | % | 10.8 |
| Cc1noc(-c2ccc(-c3ccc(CC(=O)O)cc3)cc2)c1NC(=O)O[C@H](C)c1ccccc1Cl | % | 43.6 |
| Cc1ccccc1C#Cc1ccc(CCC(=O)O)cc1 | % | 14.4 |
| CC[C@H](CC(=O)O)n1c(=O)c2ncccc2n(Cc2cn(C)c3cc(C)cc(C)c23)c1=O | % | 46.4 |

Incoming: Return reported inhibition; argument: "C[C@H](Cc1cc2c(c(C(N)=O)c1)N(CCCO)CC2)NCCOc1ccccc1OCC(F)(F)F"
Outgoing: 2.34

Incoming: Return reported inhibition; argument: "COc1ccc(-n2nc3c4ccccc4[nH]cc-3c2=O)cc1"
Outgoing: -5.16

Incoming: Return reported inhibition; argument: "O=C(O)C[C@H]1CCc2c1[nH]c1ccc(OCc3ccc(C4CCCC4)c(C(F)(F)F)c3)cc21"
Outgoing: 45

Incoming: Return reported inhibition; argument: "Cc1c(CC(=O)O)c2cccnc2n1Cc1ccc(S(C)(=O)=O)cc1C(F)(F)F"
Outgoing: -3.98

Incoming: Return reported inhibition; argument: "O=C(NNS(=O)(=O)c1ccccc1)c1cc(-c2ccnnc2)ccc1F"
Outgoing: 49.7

Incoming: Return reported inhibition; argument: "CCCCC[C@H](O)/C=C/[C@H]1CCC(=O)[C@@H]1CCCCCCC(=O)O"
Outgoing: 11.4

Incoming: Return reported inhibition; argument: "CCOC(=O)N1CCC(c2cc(O)n3nc(C)c(-c4ccc(F)cc4)c3n2)CC1"
Outgoing: 48.9

Incoming: Return reported inhibition; argument: "COc1ccccc1N1CCN(C[C@@H](C(=O)NC(C)(C)C)c2ccccc2)CC1"
Outgoing: 24.3

----------
# measurement target: N-glycosylase/DNA lyase (Homo sapiens);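 also: OGG1 cleavage of a quenched duplex DNA oligonucleotide, coupled to APE1 for strand incision, read as fluorescence at 594 nm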
# applied conditions: Compound Concentration 10.0 uM, Hit No
# Description: Inhibition of OGG1 by quantifying inhibition of OGG1-mediated cleavage and dissociation of quenched duplex DNA oligonucleotides, measured as fluorescence at 594 nm. To generate a functional strand incision and increase turn-over this assay is coupled to APE1.
Reported inhibition is given for each of the following molecules.
Report only the number, with the unit % understood.

Below, each entry is followed by its recorded inhibition result.
| structure smiles string | inhibition (%) |
| --- | --- |
| CCOC(=O)c1cnn(-c2ccc(NC(=O)C(Cl)=C(Cl)Cl)cc2)c1C(F)(F)F | -2.43 |
| O=C(Nc1cnc(Oc2ccc(F)cc2)nc1)N1CCc2ncccc2[C@@H]1c1ccc(F)cc1 | -7.44 |
| CCn1cc(-c2ccnc3[nH]c(-c4cccc(CN(C)C)c4)cc23)c(-c2ccc(NC(=O)N(C)C)cc2)n1 | 14.9 |

Incoming: Return reported inhibition; argument: "c1ccc2c(c1)CCC[C@H]2Nc1nc2ccccc2[nH]1"
Outgoing: 1.89

Incoming: Return reported inhibition; argument: "O=c1ccn([C@@H]2O[C@H](COP(=O)(O)OP(=O)(O)OP(=O)(O)O)[C@@H](O)[C@H]2O)c(=O)[nH]1"
Outgoing: -2.46
